Target: T1, murine CD19 protein (murine, UniProt P25918 17-287, limits assumed)
T1 construct: bought protein; also called commercial murine CD19
T1 sequence (looked up): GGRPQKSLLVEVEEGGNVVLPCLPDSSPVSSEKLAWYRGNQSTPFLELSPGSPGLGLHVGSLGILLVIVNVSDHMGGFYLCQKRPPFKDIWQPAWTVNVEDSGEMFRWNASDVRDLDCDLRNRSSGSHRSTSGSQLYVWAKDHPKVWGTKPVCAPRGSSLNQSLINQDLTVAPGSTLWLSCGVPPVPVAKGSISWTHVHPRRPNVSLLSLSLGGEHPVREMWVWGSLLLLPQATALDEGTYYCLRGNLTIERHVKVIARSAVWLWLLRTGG
Assay: ELISA, coated murine CD19
observation.type: binding result

# binder, endpoint.value
measured = [
    ("F4.191.1 (antibody, human IgG1, V domains shown, human-murine chimeric antibody, human IgG1) VH: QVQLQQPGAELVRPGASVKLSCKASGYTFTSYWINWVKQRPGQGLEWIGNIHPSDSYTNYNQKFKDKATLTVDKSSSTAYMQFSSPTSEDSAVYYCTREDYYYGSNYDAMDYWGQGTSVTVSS VL: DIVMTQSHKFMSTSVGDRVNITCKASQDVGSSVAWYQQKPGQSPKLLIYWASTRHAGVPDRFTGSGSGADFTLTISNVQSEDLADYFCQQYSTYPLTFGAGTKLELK", "no binding"),
    ("F3.133.14 (antibody, human IgG1, V domains shown, human-murine chimeric antibody, human IgG1) VH: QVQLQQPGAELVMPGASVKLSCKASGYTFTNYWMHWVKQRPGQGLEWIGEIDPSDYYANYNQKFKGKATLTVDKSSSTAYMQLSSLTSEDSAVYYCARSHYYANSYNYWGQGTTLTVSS VL: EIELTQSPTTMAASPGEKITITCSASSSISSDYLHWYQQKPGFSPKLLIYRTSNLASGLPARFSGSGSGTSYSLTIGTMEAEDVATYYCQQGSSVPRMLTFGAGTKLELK", "no binding"),
    ("F4.48.12 (antibody, human IgG1, V domains shown, human-murine chimeric antibody, human IgG1) VH: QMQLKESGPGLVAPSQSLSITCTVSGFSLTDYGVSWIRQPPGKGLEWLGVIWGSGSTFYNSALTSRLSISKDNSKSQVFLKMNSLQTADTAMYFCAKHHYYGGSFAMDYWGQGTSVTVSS VL: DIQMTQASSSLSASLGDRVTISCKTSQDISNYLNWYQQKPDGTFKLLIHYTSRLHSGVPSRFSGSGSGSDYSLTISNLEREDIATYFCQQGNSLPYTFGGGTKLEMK", "no binding"),
]
